- System: RARb:RXRa (NR concentration 270 nM, RXRa partner concentration 90 nM)
- assay_details: PBM binding z-score (relative to random genomic background probes); higher = stronger binding; sequences stand for … in GC…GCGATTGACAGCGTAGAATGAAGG
For each entry below, report its PBM binding z-score value.
Give bare numbers.

- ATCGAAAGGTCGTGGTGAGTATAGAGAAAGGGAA: 4.27
- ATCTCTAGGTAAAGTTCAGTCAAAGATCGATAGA: 2.55
- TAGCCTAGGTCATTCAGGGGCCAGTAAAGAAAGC: 3.86
- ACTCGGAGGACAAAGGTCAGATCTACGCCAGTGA: 4.33
- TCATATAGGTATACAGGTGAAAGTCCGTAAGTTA: 0.603
- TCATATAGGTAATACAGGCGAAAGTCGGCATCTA: 0.247
- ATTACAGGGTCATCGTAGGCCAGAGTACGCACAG: 4.45
- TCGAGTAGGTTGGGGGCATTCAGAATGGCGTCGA: 1.6
- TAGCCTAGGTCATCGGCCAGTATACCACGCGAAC: 3.75
- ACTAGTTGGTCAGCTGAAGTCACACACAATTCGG: 0.828

Give measured PBM binding z-score for every item shown.
1. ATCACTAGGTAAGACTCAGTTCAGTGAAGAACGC
2. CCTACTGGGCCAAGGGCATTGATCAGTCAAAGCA

0.143
0.896

###

- System: LXRa:RXRa (NR concentration 270 nM, RXRa partner concentration 90 nM)
- assay_details: PBM binding z-score (relative to random genomic background probes); higher = stronger binding; sequences stand for … in GC…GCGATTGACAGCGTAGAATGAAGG
For each entry below, report its PBM binding z-score value.
Give bare numbers.

* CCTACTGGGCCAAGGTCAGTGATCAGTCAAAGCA | 0.797

Give measured PBM binding z-score for every item shown.
1. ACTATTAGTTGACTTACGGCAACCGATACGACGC
2. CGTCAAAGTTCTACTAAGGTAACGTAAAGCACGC
3. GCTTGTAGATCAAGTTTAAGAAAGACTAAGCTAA
4. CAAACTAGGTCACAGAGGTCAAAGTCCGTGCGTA

1. 0.066
2. -0.151
3. -0.231
4. 6.66

Give measured PBM binding z-score for every item shown.
1. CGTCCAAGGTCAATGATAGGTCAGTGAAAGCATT
2. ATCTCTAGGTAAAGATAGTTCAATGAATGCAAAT
3. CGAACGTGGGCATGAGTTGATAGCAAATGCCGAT
4. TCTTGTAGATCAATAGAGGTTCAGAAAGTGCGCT
5. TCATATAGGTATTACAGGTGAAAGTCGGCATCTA
6. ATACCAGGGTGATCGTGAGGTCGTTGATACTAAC
7. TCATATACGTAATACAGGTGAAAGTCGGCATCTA
8. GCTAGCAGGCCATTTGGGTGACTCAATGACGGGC

1: 6; 2: 4.83; 3: -0.876; 4: 0.78; 5: 2.05; 6: 1.44; 7: 1.13; 8: -0.729

Give measured PBM binding z-score for every item shown.
1. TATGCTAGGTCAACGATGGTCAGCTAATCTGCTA
2. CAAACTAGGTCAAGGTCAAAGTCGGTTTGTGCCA
3. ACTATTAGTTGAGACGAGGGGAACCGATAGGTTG

[4.53, 5.95, -0.0882]

Give measured PBM binding z-score for every item shown.
1. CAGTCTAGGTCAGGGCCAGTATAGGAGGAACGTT
2. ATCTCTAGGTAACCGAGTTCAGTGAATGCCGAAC
3. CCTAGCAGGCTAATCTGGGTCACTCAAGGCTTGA
4. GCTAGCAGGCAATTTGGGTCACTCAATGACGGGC
5. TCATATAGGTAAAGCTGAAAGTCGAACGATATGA

1: 1.1; 2: 0.883; 3: 3.74; 4: 0.398; 5: 0.331

###

- Test system: PPARg:RXRa 30nM:10nM, anti-RXR (NR concentration 30 nM, RXRa partner concentration 10 nM)
- assay_details: PBM binding z-score (relative to random genomic background probes); higher = stronger binding; sequences stand for … in GC…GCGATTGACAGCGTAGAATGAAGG
measured_property: PBM binding z-score
One number for each entry.

• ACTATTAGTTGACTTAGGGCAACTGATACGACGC = 0.501

Give measured PBM binding z-score for every item shown.
1. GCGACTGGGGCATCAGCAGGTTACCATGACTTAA
2. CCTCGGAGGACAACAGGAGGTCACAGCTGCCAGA
3. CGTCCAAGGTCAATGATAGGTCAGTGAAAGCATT
4. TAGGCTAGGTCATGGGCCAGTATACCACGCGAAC
5. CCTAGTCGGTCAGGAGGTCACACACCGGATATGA
6. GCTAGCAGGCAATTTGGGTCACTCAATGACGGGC

1: -0.743; 2: -0.188; 3: 1.74; 4: 1.3; 5: 3.26; 6: -0.305

###

- Test system: RARg homodimer (NR concentration 270 nM)
- assay_details: PBM binding z-score (relative to random genomic background probes); higher = stronger binding; sequences stand for … in GC…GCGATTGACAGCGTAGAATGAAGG
measured_property: PBM binding z-score
Numbers only.

Give measured PBM binding z-score for every item shown.
1. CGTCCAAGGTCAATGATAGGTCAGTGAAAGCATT
2. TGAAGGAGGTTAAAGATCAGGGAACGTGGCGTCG

1: 7.06; 2: 0.932

Give measured PBM binding z-score for every item shown.
1. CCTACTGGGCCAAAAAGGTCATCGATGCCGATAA
2. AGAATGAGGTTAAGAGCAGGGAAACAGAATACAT
3. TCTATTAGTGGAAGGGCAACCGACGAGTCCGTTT
4. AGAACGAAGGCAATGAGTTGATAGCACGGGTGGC

1. 4.77
2. 1.27
3. 0.673
4. -0.122

###

- System: VDR:RXRa (NR concentration 270 nM, RXRa partner concentration 90 nM)
- assay_details: PBM binding z-score (relative to random genomic background probes); higher = stronger binding; sequences stand for … in GC…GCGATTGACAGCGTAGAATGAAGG
I would appreciate it if you labelled entries true when PBM binding z-score is 3 or higher, otherwise false.

# count of solved cases: 5
- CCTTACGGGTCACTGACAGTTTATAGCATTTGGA: true
- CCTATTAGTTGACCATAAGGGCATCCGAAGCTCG: false
- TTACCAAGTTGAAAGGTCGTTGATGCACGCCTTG: false
- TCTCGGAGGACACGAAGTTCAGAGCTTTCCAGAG: false
- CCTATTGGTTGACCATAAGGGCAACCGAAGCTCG: false

Is it the case that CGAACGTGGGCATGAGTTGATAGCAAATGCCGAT has PBM binding z-score reaching or exceeding 3?
false

###

For each entry below, report its PBM binding z-score value.
- System: PPARg:RXRa DBDmut IVT, anti-RXR (DBD mutation: RXRa K156A/R161A, NR concentration 270 nM, RXRa partner concentration 90 nM)
- assay_details: PBM binding z-score (relative to random genomic background probes); higher = stronger binding; sequences stand for … in GC…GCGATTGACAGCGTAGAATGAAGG
Numbers only.

• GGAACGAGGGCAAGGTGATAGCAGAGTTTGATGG = 3.43
• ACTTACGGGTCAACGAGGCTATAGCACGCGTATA = 3.07
• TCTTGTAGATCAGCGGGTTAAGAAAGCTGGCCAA = 1.84
• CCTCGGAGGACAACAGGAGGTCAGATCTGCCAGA = 0.382
• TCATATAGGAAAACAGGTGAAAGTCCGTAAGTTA = 2.83
• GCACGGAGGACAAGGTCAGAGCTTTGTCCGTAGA = -0.0936

Give measured PBM binding z-score for every item shown.
1. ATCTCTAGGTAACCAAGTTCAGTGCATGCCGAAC
2. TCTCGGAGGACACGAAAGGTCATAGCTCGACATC
3. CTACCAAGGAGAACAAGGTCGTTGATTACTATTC
4. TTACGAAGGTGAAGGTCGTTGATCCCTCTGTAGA
5. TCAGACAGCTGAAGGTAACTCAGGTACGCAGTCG
6. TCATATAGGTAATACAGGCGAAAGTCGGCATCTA
7. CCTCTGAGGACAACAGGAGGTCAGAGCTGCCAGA
8. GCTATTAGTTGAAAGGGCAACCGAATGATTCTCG

1. 3.99
2. 2.17
3. 0.168
4. 1.43
5. 1.6
6. 3.6
7. 0.791
8. 0.456

###

- System: LXRb homodimer (NR concentration 270 nM)
- assay_details: PBM binding z-score (relative to random genomic background probes); higher = stronger binding; sequences stand for … in GC…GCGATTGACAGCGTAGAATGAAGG
Each record's PBM binding z-score is compared with lower segment (below -0.6), middle segment (-0.6 to below 0.2), upper segment (0.2 or more) to give its class.

# count of solved cases: 3
- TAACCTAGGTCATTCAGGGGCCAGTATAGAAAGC: upper segment
- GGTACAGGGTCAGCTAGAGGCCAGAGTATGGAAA: middle segment
- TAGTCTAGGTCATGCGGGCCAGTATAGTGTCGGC: upper segment

Now for another entry.
In plain terms, what class is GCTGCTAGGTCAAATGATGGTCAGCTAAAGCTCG ?
upper segment
